Molecular target: T1, human IL-2Rβ (human, UniProt P14784 27-240, limits assumed)
T1 construct: recombinant protein, coated or immobilised; also called hu IL-2R; IL-2R beta
T1 sequence: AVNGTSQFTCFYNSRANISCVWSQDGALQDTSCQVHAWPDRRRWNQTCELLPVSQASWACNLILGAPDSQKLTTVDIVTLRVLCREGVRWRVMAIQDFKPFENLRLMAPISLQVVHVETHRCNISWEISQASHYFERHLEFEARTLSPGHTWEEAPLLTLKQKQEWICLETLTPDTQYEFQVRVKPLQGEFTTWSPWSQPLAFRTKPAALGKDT
Test: P.E. ELISA, coated protein
Exercise: state measured P.E. binding ELISA OD for each of the binders provided.
One number for each entry, in OD450 nm.

FJ1427 P035MP02A07 (VHH, soluble VHH in periplasmic extract; also called clone nr) VHH: QVQLVESGGGLVQAGGSLRLSCAVSGDVFVRYTMAWFRQAPGKEREFVATVTDSGRTTEYVDSVKGRFTVSRDNAKNTVYLQMNNLKPEDTAVYYCAANTDYFRIRSLDANTWGQGTQVTVSS	0.791
FJ1427_P035MP02E10 (VHH, soluble VHH in periplasmic extract; also called clone nr) VHH: QVQLVESGGGLVQAGGSLRLSCAAAGRAIENYPVGWFRRAPGKEREFVAAITWISGSTLYADSVKGRFTISRDNAKNTVYLQMSSLKPEDTALYYCAAALKTITRGQNDYSYWGQGTQVTVSS	1.39
FJ1427_P035MP02A09 (VHH, soluble VHH in periplasmic extract; also called clone nr) VHH: QVQLVESGGGLVQAGGSLRLSCAVSGDVFVRYTMAWFRQAPGKEREFVASVTDSGRTTEYVDSAKGRFTVSRDNAKNTVYLQMNSLKPEDTAVYYCAANTDYFQIRSLRANTWGQGTQVTVSS	1.3

Q. What does the data say about its P.E. binding ELISA OD? Entry: FJ1427_P035MP02E01 (VHH, soluble VHH in periplasmic extract; also called clone nr) VHH: EVQLVESGGGLVQIGGSLRLSCAASGRTFSSITMAYFRQVPGKEREWVAGINFSGTRTFYADSVKGRFLISRDDAKSTMYLQMNSLKPEDTAVYYCAASPRGFYGPGNALYDYWGQGTQVTVSS
A. 1.11
